The reported numbers originate from ChEMBL document CHEMBL1131824.

- tested on: Cannabinoid receptor 1 (Homo sapiens)
- method description: Binding affinity for brain CBI receptor was determined
parameter measured: pKi
pKi (log units): -log10 of the concentration in mol/L.

For `CCCCCn1ccc(C(=O)c2cccc3ccccc23)c1` the molecule record lists pKi as 7.06

---

- tested on: Cannabinoid receptor 1 (Homo sapiens, UniProt P21554)
- Sequence (P21554 whole entry): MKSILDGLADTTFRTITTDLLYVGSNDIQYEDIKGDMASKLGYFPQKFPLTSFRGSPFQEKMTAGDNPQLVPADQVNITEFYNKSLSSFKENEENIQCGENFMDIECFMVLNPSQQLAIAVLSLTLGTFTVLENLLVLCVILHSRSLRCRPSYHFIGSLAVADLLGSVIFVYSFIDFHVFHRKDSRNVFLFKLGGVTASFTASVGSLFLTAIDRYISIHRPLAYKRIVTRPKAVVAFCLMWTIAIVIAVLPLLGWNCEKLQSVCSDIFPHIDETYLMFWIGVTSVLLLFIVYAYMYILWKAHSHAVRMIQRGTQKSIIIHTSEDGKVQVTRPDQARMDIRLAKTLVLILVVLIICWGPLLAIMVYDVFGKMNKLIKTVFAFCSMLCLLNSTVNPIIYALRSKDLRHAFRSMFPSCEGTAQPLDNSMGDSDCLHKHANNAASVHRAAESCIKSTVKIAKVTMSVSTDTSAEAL
- method description: biochemical
- Format: cell-based, CHO
parameter measured: pKi
pKi (log units): -log10 of the concentration in mol/L.

For CCCCCCC(C)(C)c1cc(O)c2c(c1)OC(C)(C)[C@@H]1CCC(CO)C[C@@H]21 (stereo partly specified) the molecule record lists pKi as 9.09
